- METHOD DESCRIPTION: Solubility experiments in biosolvents and water
- Assay type: physicochemical
- COND: simulated gastric fluid, thermodynamic from solid; SGF, 24 h
REPORTED ENDPOINT: solubility at 24 h

NCc1cccc(-c2cc(COc3ccccc3CC(=O)O)cc(N3CCC4(CC3)CC4)c2)c1 [crystal form I] :: > 5000 µg/mL

---

- METHOD DESCRIPTION: Solubility experiments in biosolvents and water
- Assay type: physicochemical
- COND: thermodynamic from solid; FeSSIF, 24 h
REPORTED ENDPOINT: solubility at 24 h (µg/mL)

NCc1cccc(-c2cc(COc3ccccc3CC(=O)O)cc(N3CCC4(CC3)CC4)c2)c1 [crystal form I] :: 730
